Molecular target: T1, recombinant MS4A4A soluble polypeptide JS5
T1 construct: also called JS5.His
Assay: ELISA, 0.11 ug/ml antibody
propertyMeasured: ELISA OD

- anti-MS4A4A antibody 4A-351 (antibody, V domains shown, full human IgG) VH: QVQLVQSGSELKKPGASVKVSCKASGYIFTSYGLSWVRQAPGQGLEWMGWINTYSGVPTYAQGFTGRFVFSLDTSVSTAYLQISSLKAEDTAVYYCARTLADYWGQGTLVTVSS VL: DVVMTQSPLSLPVTLGQPASISCKSSRSLLYSDGKTYLSWFQQRPGQSPRRLIYLVSKLDSGVPDRFSGSGSGTDFTLKISRVEAEDVGVYYCWQGIDFHQTFGGGTKVEIK: 0.816
- anti-MS4A4A antibody 4A-378 (antibody, V domains shown) VH: QVQLVQSGSELKKPGASVKVSCKASGYIFTSYGLSWVRQAPGQGLEWMGWINTYSGVPTYAQGFTGRFVFSLDTSVSTAYLQISSLKAEDTAVYYCARSMADYWGQGTLVTVSS VL: DVVMTQSPLSLPVTLGQPASISCKSSRSLLYSEGKTYLSWFQQRPGQSPRRLIYLVSKLDSGVPDRFSGSGSGTDFTLKISRVEAEDVGVYYCWQGIDFHQTFGGGTKVEIK: 0.636
- anti-MS4A4A antibody 4A-377 (antibody, V domains shown, full human IgG) VH: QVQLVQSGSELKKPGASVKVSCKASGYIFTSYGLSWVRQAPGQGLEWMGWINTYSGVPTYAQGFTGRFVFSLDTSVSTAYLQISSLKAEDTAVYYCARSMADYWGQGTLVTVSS VL: DVVMTQSPLSLPVTLGQPASISCKSSRSLLYSGGKTYLSWFQQRPGQSPRRLIYLVSKLDSGVPDRFSGSGSGTDFTLKISRVEAEDVGVYYCWQGIDFHQTFGGGTKVEIK: 0.577
